Molecular target: T1, human B7-H4 extracellular domain (human, UniProt Q7Z7D3 29-258)
T1 construct: For SPR it says only human B7-H4 ECD; also called Hu B7-H4 ECD; huB7-H4 ECD
T1 sequence: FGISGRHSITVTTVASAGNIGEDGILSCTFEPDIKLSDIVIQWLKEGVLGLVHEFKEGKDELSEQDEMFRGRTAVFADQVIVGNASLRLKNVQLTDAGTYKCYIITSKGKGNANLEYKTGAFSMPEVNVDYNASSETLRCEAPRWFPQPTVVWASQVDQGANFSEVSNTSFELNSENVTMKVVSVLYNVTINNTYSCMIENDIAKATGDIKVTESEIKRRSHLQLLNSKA
Assay: SPR Biacore 8K 25 C; mAb captured on anti-human Fc, huB7-H4 ECD analyte, 1:1 fit;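 also: antibodies tested as IgG1, running buffer HBS-EP+ at pH 7.4, rate constants and affinity from a 1:1 Langmuir model fit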
test.readout: kon (M⁻¹ s⁻¹)
Dear colleague, please return just the value in M⁻¹ s⁻¹, with no unit written.

B7-H4 antibody 0051 (antibody, human IgG1, kappa, V domains shown, also called 27C12) VH: EVQLLESGGGLVQPGGSLRLSCAASGFTFSSYAMSWVRQAPGKGLEWVSSISGNGGSTYYADSVKGRFTISRDNSKNTLSLQMNSLRAEDTAVYYCAKVGWRTGDYWGQGTLVTVSS VL: DIQLTQSPSTLSASVGDRVTITCRASQSISSWLAWYQQKAGKAPKLLIYKASDLESGVPSRFSGSGSGIEFTLTISSLQPDDFATYYCQQYNSYSWTFGQGTKVEIKR    814000

Next up:
Qu. Indicate the recorded kon value for this binder: B7-H4 antibody 0052 (antibody, human IgG1, kappa, V domains shown, also called 28D10) VH: QVQLQQWGAGLLKPSETLSLTCAVYGGSFSGYYWNWIRQPPGKGLEWIGEINHSGSTKYNPSLKSRVTISGDTSKNQFSLKLNSVTAADTAVYYCVRGLYNWNVDSWGQGTLVTVSS VL: DIQMTQSPSSLSASVGDRVTITCRASQGIRNDLGWYQQKPGKAPKRLIYVASSLQSGVPSRFSGSGSGTEFTLTISSLQPEDFATYYCLQHNSYPYTFGQGTKLEIKR
Ans. 140000

Just for reference, patent US20220017622A1 is where these values come from.
